Tested on: HT-29
EXPERIMENTAL_DETAILS: NCI tumour cell line growth inhibition, 48 h
Active and inactive are the calls of the source. No stated cut-off is given here; in the data, active = GI50 up to about 1.1 µM and inactive = higher.
One label from this list, please: active, inactive

Q: Please share the test call associated with CCC1=CC2CN3Cn4c(c(COCc5c6n(c7ccccc57)CN5CC7C=C(CC)C5C6(C(=O)OC)C7)c5ccccc54)C(C(=O)OC)(C2)C13 .
Ans: inactive

Q: // return assay outcome for CC1(C)[C@@H]2CC[C@@]1(C)CN(CCC[N+](C)(C)C)C2
Ans: inactive

Q: Called result for CCC12C=CCN3CC[C@]4(C(=C(C(=O)OC)[C@@H]1Nc1ccn(C5OC(COC(C)=O)C(OC(C)=O)C5OC(C)=O)c(=O)n1)Nc1ccccc14)C32 (stereo partly drawn)
Ans: inactive

Q: Call for entry COC(=O)c1c(O)ccc2c1c1cc3ccccc3cc1n2Cc1cc(OC)cc(OC)c1 :
Ans: inactive

Q: # fetch the recorded call for c1ccc(CSC2(SCc3ccccc3)CCCCC2)cc1 here
Ans: inactive

Q: Short answer needed: outcome of this test for O=C1N/C(=N/N=C/c2ccccc2)N/C1=C\c1c[nH]c2ccccc12 ?
Ans: inactive

Q: Write down the call the test reported for this compound. Item: O=[N+]([O-])c1ccc(C2c3c(O)nc(S)nc3Oc3nc(S)nc(O)c32)cc1
Ans: inactive

Q: Per the records of this test, what outcome belongs to O=C1C=CC(=O)c2nc3c(cc21)CCC3 ?
Ans: inactive

Q: Just curious, what result did Nc1nc(-c2cccs2)cs1 get here?
Ans: inactive

Q: Each compound tested received a call. Report the one for CCCSc1ccc2[nH]c(N3C(=O)/C(=C/c4ccccc4)N=C3c3ccccc3)cc2c1 .
Ans: inactive

Q: State the result this test recorded for COc1ccc([N+](=O)[O-])c2c(NCCCN(C)C)c(C)c(C)nc12 .
Ans: inactive

Q: Could you kindly confirm the outcome this assay logged for CCCCC1c2c([nH]c3ccccc23)C2C(=O)N(c3ccc(OC)cc3)C(=O)C2C1CCC (stereo not drawn) ?
Ans: inactive

Q: Which result was noted for this compound in the test: NC(=O)NC(=O)c1cccc(NC(=O)CI)c1
Ans: active

Q: What did this assay record as the result for O=C1c2ccccc2S(=O)(=O)c2c1cccc2[N+](=O)[O-] ?
Ans: inactive

Q: Outcome logged for Nc1c(-c2ccccc2)c2ccc([N+](=O)[O-])cc2c(=O)n1-c1cccc(C(=O)O)c1 in this assay:
Ans: inactive

Q: Tell me the recorded outcome of this test for NC(=O)N/C=C1\C(=O)Oc2ccccc2C1=O .
Ans: inactive

Q: Hi, do you know how C=CCn1c(S)nnc1C12CC3CC(CC(C3)C1)C2 came out in this test?
Ans: inactive

Q: // outcome(item) with item = COc1c2nc(CCl)[nH]c(=O)c2c(OC)c2nc(CCl)[nH]c(=O)c12
Ans: inactive

Q: Outcome logged for CCOC(=O)C1=C(Nc2cccc3ccccc23)OCC1=O in this assay:
Ans: inactive

Q: Which outcome did this test record for the compound N=C(N)N/N=C(/CC1OC(=O)c2ccccc21)c1ccc2ccccc2c1 (stereo not drawn) ?
Ans: inactive

Q: What was the test verdict on NNC(=O)c1cc([N+](=O)[O-])ccc1NC(=O)C12CC3CC(CC(C3)C1)C2 ?
Ans: inactive

Q: Which result was noted for this compound in the test: O=C(CC(O)(C(F)(F)F)C(F)(F)F)C(CCCl)C(O)(C(F)(F)F)C(F)(F)F (stereo not drawn)
Ans: inactive

Q: Just curious, what result did CC(C)OP(=O)(NC(=S)c1ccccc1)OC(C)C get here?
Ans: inactive

Q: # fetch the recorded call for CC(C)C1N2CCCCC2[C@@H]2c3[nH]c4ccccc4c3CCN12 (stereo partly drawn) here
Ans: inactive

Q: Kindly provide the recorded test outcome for the following compound: CC(C)=CC1C(COC(=O)c2cc3c(cc2Cl)OCO3)C1(C)C (stereo not drawn)
Ans: inactive

Q: Assay outcome for COC(=O)[C@]12CCC(=O)N1[C@H](C(=O)O)Cc1c2[nH]c2ccccc12 : what was it?
Ans: inactive

Q: Just curious, what result did CN/N=C(\C)C(CN1CCCCC1)C(C1=C(O)c2ccccc2OC1)c1ccccc1 (stereo not drawn) get here?
Ans: inactive

Q: Call for entry CCNc1ncnc2nn[nH]c12 :
Ans: inactive

Q: How did this test come out for Nc1nc(Cl)cc(NCC2(CO)CCC(O)C2)n1 (stereo not drawn) ?
Ans: inactive

Q: What was the test verdict on COc1ccc(NC(C)=O)c(C(O)CCNC(C)=O)c1 (stereo not drawn) ?
Ans: inactive

Q: Entry N#Cc1c(=O)c2cc([N+](=O)[O-])ccc2n2c1[nH]c1ccccc12 : call = ?
Ans: inactive

Q: Entry COc1cc(Cl)c2c3c(c(C(C)=O)oc13)CCC2 : call = ?
Ans: inactive

Q: Outcome? CC(C)C(=O)NS(=O)(=O)c1ccccc1
Ans: inactive

Q: Which result was noted for this compound in the test: NCCO/C=C/C(N)C(=O)O (stereo not drawn)
Ans: inactive

Q: Hey, what did the test say about Nn1c(CNc2ccc(-c3nnc(Nc4ccc(Cl)cc4)n3N)cc2)nnc1Nc1ccc(Cl)cc1 ?
Ans: inactive

Q: // param item: Nc1ccc(C(=O)NN2C(=O)C(Cl)C2c2ccc([N+](=O)[O-])cc2)cc1 (stereo not drawn) ; yields the recorded call
Ans: inactive

Q: For this compound, state the assay outcome: C=C=C(C(=O)OC)[S+]([O-])c1ccccc1[N+](=O)[O-] (stereo not drawn)
Ans: inactive

Q: Each compound tested received a call. Report the one for CCCCCCc1cc2cc(C(=O)Nc3ccc(F)cc3)c(=N)oc2cc1O .
Ans: inactive

Q: Answer briefly: the call reported for CNC(=O)CN(CC(=O)NC)C(=O)NC in this assay.
Ans: inactive

Q: Name the outcome recorded for C[C@]12CC[C@H](OC(=O)Nc3ccccc3)CC1=CC[C@@H]1C2CC[C@]2(C)/C(=N/OC(=O)Nc3ccccc3)CCC12 (stereo partly drawn) in the assay.
Ans: inactive

Q: Dear all, I need the recorded test outcome for O=C1c2ccoc2C(=O)c2oc(=O)ccc21 , thank you.
Ans: inactive

Q: Give the logged outcome of this assay for the following compound: O=C(c1ccccc1)N1N=C(C(F)(F)F)CC1(O)C(F)(F)F (stereo not drawn)
Ans: inactive

Q: Please share the test call associated with Cc1ccc(Nc2nc(=O)[nH]c(=O)[nH]2)cc1N .
Ans: inactive

###

System: CCRF-CEM
EXPERIMENTAL_DETAILS: NCI tumour cell line growth inhibition, 48 h
Active and inactive are the calls of the source. Rule as the data show it: active = GI50 up to about 1.1 µM and inactive = higher.
Kindly state GI50 for each of the entries shown.

Q: Return reported GI50; argument: Cc1cc2c(O)c(c1)COCc1cc(C)cc(c1O)COCc1cc(C)cc(c1O)COC2
Ans: 32.1 µM (inactive)

Q: Recorded GI50 of COc1cc2c(cc1O)C(=O)O[C@@H]1CC=C3CCN(C)[C@H]3[C@H]21 , please.
Ans: > 25 µM (inactive)

Q: What does the data say about its GI50? Entry: COc1ccc(C2c3cc4c(cc3OC(O)(CO)C2C(=O)O)OCO4)cc1.COc1ccc(C2c3cc4c(cc3OC3(O)COC(=O)C23)OCO4)cc1 (centres undefined)
Ans: 18.7 µM (inactive)

Q: Return reported GI50; argument: CC(=O)O[C@@H]1C(=O)N(c2ccccc2)[C@@H]1c1cc2ccccc2c2ccccc12
Ans: 25.6 µM (inactive)

###

Please provide measured GI50 for the entries that follow.
Tested on: MDA-MB-435
EXPERIMENTAL_DETAILS: NCI tumour cell line growth inhibition, 48 h
Activity calls are given as the source filed them. Cut-off read from the data, not from the text of the source: active = GI50 up to about 1.1 µM and inactive = higher.

Q: Suppose we examine the molecule CCOC(=O)/C(=C\c1cccc(C)c1)C(C)=O ; what GI50 value has been reported?
Ans: 16.3 µM (inactive)

Q: Given the entry COc1cc(/C=N\O)cc(/C=N/O)c1O , report its measured GI50.
Ans: 40 µM (inactive)

Q: Need GI50, item Cn1c(=O)c2c(nc(Nc3ccc(Cl)cc3)n3c(=O)n(-c4ccccc4)c(=O)n23)n(C)c1=O
Ans: > 100 µM (inactive)

Q: Could you share which GI50 value was measured for COc1ncc(C#CC(=O)c2ccccc2)c(OC)n1 ?
Ans: 3.91 µM (inactive)

Q: Any idea what GI50 was measured for Cc1ccc(S(=O)(=O)OCCC2CN(C(=O)OCc3ccccc3)C(C)(C)O2)cc1 (stereo not given) ?
Ans: 3.61 µM (inactive)

Q: Look up GI50 for this molecule: Nc1nc(Cl)cc(NCC2(CO)CCC(O)C2)n1 (stereo not given)
Ans: > 100 µM (inactive)

Q: Please report the recorded GI50 for Cc1c(OCc2cccc3ccccc23)ccc2c(=O)cc(SCCN3CCOCC3)oc12 .
Ans: > 100 µM (inactive)

Q: Return reported GI50; argument: O=S(=O)(c1cc(Cl)ccc1Cl)N1CCN(S(=O)(=O)c2cc(Cl)ccc2Cl)CC1
Ans: > 100 µM (inactive)

Q: Look up GI50 for this molecule: N#C/C(=C/N1C(=O)/C(=C/c2ccc([N+](=O)[O-])cc2)SC1=S)c1nc2ccccc2s1
Ans: 29.5 µM (inactive)

Q: // GI50 lookup, key: Cc1cc(C)c(C2CC(O)C(CO)O2)cc1C (stereo not given)
Ans: > 100 µM (inactive)

Reference source: ChEMBL document CHEMBL1201862
